Data origin: the supplement of paper PMC9170038

test system: MS2 coat protein; assay: apparent KD of MS2 coat protein; designed switch direction (-1 OFF switch, 1 ON switch): -1; higher = weaker reporter binding; settings: Eterna round: R95; input ligand: FMN 200 uM
quantity kind: apparent KD of MS2 coat protein (µM)

* GAAAAGAGAGGAUAUACAAGAAGAAAAGAAAAGAAAAGAAAACAUGAGGAUCACCCAUGUAGAAGGCUCAAAAG [Default title] (puzzle: Exclusion 2) | 0.0182
* AAGAAGAUAGGAUAUACGAGGAGAGAAGAGAAGAAAGGAGGACAUGAGGAUCACCCAUGUAGAAGGAUCAGGAA [JR_Exclu2_Sub061] (puzzle: Exclusion 2) | 0.0502
* AGGAAUGAAGGAUAUACAUGAGGAUCACCCAUGUAAAACAAGAGAUUUGAUGUAUAAUGUAGAAGGUCAAGAAG [JR_Exclusion3_Sub003] (puzzle: Exclusion 3) | 0.0252
* AGAAAAGCCCAUGACCGCAAGCUUUUUGCUUGUCUUACCACAUGAGGAUCACCCAUGUGACAUGGGCUCCUUAUAAU [Atcein] (puzzle: Sensor v3, turn-off variant 2) | 0.0132
* UUUAAUUUUUUUUUUUUACAAGCUUUUUGCUCGUCUUAUACAUGAGGAUCACCCAUGUGAAUGGAGGAUAAAUUAUC [JMF 30] (puzzle: Sensor v3, turn-off variant 2) | 0.0295

* * *

In this section, each of the sequences is paired with its reported apparent KD of K4 kissing-loop reporter.
test system: K4 kissing-loop RNA reporter; assay: apparent KD of K4 kissing-loop reporter; higher = weaker reporter binding; conditions: Eterna round: R107; input ligand: arginine 13.2 mM
quantity kind: apparent KD of K4 kissing-loop reporter

- GUUACGCAUGGAAGGAGCGCUCUCAUAUUUAAUAACACAGUGAUGUUGUGAAUUUAUAUAAAGCAGGUAGGUCGCCAUGUGUAAC [Ex Arginine B K4 6]: 281 nM
- AGGAGUGAUGUUCCUACAUACACGGUCCGACGAGGACCGGUACGGCCGCCACUCGCGUCCCAGUGAUGUUGGGAUUUGGCGUACA [Exclusion Tryptophan A Gf 16]: 168 nM
- CGCGACGUGGUCACGCCAGUCUCGUUAACCAAGGAUAUUGAGAAGACAAGAAGGUGGAUGUACCAUAGUGAUGUUGUGGUCAGUA [theeternabot_sameState_KL_FMN_A_17]: 356 nM
- CCUGGCGAGGUAACGUGGAUAUCUCGUCGCAAGGAUAUCUGGAAACAGAGAAGGUGCUACAUUACCGGCAGUGAUGUUGCUGACC: 336 nM
- CCAGGAUGAUGAGGAUGAUAAAUUACUGAAGGAGCGCAUAUGGUUGCAGGUAGGUCGCGGUGAAUAAGUAUAGUGAUGUUAUGCC [SSArgA.Y]: 612 nM
- GGUGUUGUUUGUGCUGUUUUCUUCGUUUCUCGAGGACCGGUACGGCCGCCACUCGAGUGAUGUUUGGGUAGCGAUCUUUGUUAGU [Bdazzled - #4- Exc. Tryptophan A]: 256 nM
- AGGCACGAGCAAGGAUAUCGAGUAGAGUGAUGUUCUGCCUGGGUUGGCUCGUAAGGGCCUUCCCAGCGAGAAGGUGCUCGUGCCU [#2 Same State - FMN A Attempt #15 (HarryS)]: 632 nM
- GCGCGGGUCAGUGAUGUUGACCCUCGGAGACGAGGACCGGUACGGCCGCCACUCGUCCGCGCAGCUGAGGCAAAAGCCUCGGCAA [Omei KL Tryp A SS B v5]: 142 nM
- AGACUACCUACACUGUCAAUAGACAGUGACUAGGAUAUGCUGAUAAGCAGAAGGAGUGAUGUUCCUAAUAAAAGGUGGUAGUCAU [FmnAX 19 #SwitchBubble #StaticStem #K4Early]: 258 nM
- GGUAGCAUGGCGGCCGCCACUACAAGUAGUGACCCAAGUGAUGUUUGGAAGCGGGUCCUAAUUGGUAGGACCGGGCCAUGCUACC: 502 nM
- UGACUGGACUGAAGGAGCGCAAAACUCCUAGUGAUGUUAGGAAAACGAGACAAAGUCUCGAUGCAGGUAGGUCGCAGUCUAGUCU: 146 nM
- GGGAGGAGUGGUGUUGAUUAGGGAGCGGAAGGAGCGCCGAAGAAGGCAGGUAGGUCGCCGGAAUAUAGUGAUGUUAUAUAGAGGG [ExArg.G]: 211 nM

* * *

tested on: K4 kissing-loop RNA reporter; assay: apparent KD of K4 kissing-loop reporter; higher = weaker reporter binding; conditions: Eterna round: R107; input ligand: theophylline 20 uM;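 note: bound reporter read as fluorescence of individual clusters on recovered sequencing chips by microscopy, with normalized cluster intensities fitted with a binding model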
In this section, each of the sequences is paired with its reported apparent KD of K4 kissing-loop reporter.
quantity kind: apparent KD of K4 kissing-loop reporter (nM)

- AAAUUCUUUUUUUUAUUUAACUUUUCAGAAGGAGCGUGGUAGUACACAGGUAGGUCGCUGAAUUUUAGACUAGUGAUGUUAGUUA [JR_SSArginiA_Sub008]: 182
- UGUCAUUGGUCGGCCGCCACUCCAUAACGAGUGAUGUUCUAAAAGACGGAUCGAAAGAUCUGUCGGAGGACCGGGACCGAUGACU [FiskerMod 6 - Jieux - Same State - Tryptophan B]: 274
- GCGCGGGUCAGUGAUGUUGACCCUCGGAGACGAGGACCGGUACGGCCGCCACUCGUCCGCGCAGCUGAGGCAAAAGCCUCGGCAA [Omei KL Tryp A SS B v5]: 131
- UGGGAUGGGCGAGGAUAUGGUGAGGUGGCGGUUGUUAGUGAUGUUGGUGAUGCUAGUGAUGUUUGUCCAGAAGGCGCGGGAUUUU [BDazzled]: 179
- CAUCUCAUGAAAUGAGAUGUCAUCAGUGAAGGAGCGCUAUUAGCAGCAGGUAGGUCGCACUGAAGCGGAGUGAUGUUCUGUAUGA [Arg A SS t3]: 214
- GAGAUAGAGGCGGCCGCCACUAGUGAUGUUAGUGAUGUUAGAUAGAGAAUAUAACAGGGAUUAGAUAGGACCGGGCCAGAUGGAG ['lljullin]: 103
- CACGAUGAAUUCUCUAGGAGUGAUGUUUUUCGAGGACCGGUACGGCCGCCACUCGGACCAGGAGCGUGGUAGCGGCGAAAAGACU [zpmullin]: 523
- UCAAACGAUGGAAGGAGCGCUCGUCAGUCCUGCGAGUGAUGUUCGUGGGUAAAUAGUCGCGAGCAGGUAGGUCGCCAUCUUAAGC [Bisodi]: 108
- AGGAGUGAUGUUCCUACAUACACGGUCCGACGAGGACCGGUACGGCCGCCACUCGCGUCCCAGUGAUGUUGGGAUUUGGCGUACA [Exclusion Tryptophan A Gf 16]: 141
- GAUUAAUAAGAGGAUACCAGUACUAAUAAAGUACAUUAAUAGUAGAGUGAUGUUCUAAAGUACCCUUGGCAGCUUAGAGUAAGUU [#08 K4 Theophylline B Exclusion]: 226
- CGCCGCAAGGCGGUCCUGCCCACUCCGGAAGGAGCGCCCGCAAGGGCAGGUAGGUCGCCGGAGUGAUGUUCCGGUGGCAGGACCG [#2 Exclusion - Arginine A Attempt #4 (Inspired by Omei)]: 264
- AGCUAUUAGACGGCCGCCACUUGCUCUGAGACCUGACAUGGAACCAGUGAUGUUGGUUUGCGUGUAAGGACCGGGUUUGGUGGCG [Tiesbi]: 88.7
- AGGCACGAGCAAGGAUAUCGAGUAGAGUGAUGUUCUGCCUGGGUUGGCUCGUAAGGGCCUUCCCAGCGAGAAGGUGCUCGUGCCU [#2 Same State - FMN A Attempt #15 (HarryS)]: 581
- GGUGGCUUACAAAGCUCAGUGAUGUUGAGCCGAGGACCGGUACGGCCGCCACUCGUUUGCCAUUCACUACAGUUACAAGCACUAG [theeternabot_exclusion_KL_Trp_A_2]: 282
- CCCUCACGAGUGAUGUUCGUAGGGUACAGUCAGGAUAUCAUGCGGUUGAGAAGGGACAGGAAGGGCGGCGGCGGGUUGCUCACCG [Atera]: 204
- UGCGCUAUGUCCUAAAAUGUCCUCCGGGAUACCAGAGUCUUUUUAUUCCCUUGGCAGCUUGAGUGAUGUUUGAUGCCGUUCUUGU [nnbvmullin]: 355
- AUUUAAUUAACUGAUACCAGACUUAAUGUUUUGUAUAUUACUAGUGAUGUUAGUGAUUCUGUCCCUUGGCAGCAGUAUCUACUUA [JR_ExcTheophyB_Sub014]: 153
- AAGUGUUCUAGUGAUACCAGACAUUUCAAUUACAUUAAUAUAGCUAAGUGAUGUUUAGCAGUCCCUUGGCAGCACUAUUUCACUA [JR_SSTheophyB_Sub016]: 149
- GUAUCGCUAGGAGGAUAUUUCGUUUUUCAUAGCAAUGGCUGUGCGGAGUGAUGUUCCGAUUUACCGGAAGAAGGCCUAGUGAUAC [FMN B 27]: 158
- GCCGUAGAUUGAAGGAGCGUUCUUACUGAUUACGGCAGCCGGAAGUGAUGUUUCCAGGUGGAACAGGUAGGUCGCAAUCUACGGC: 99.8
- GCCGUACGCAUGGAUACCAGCUAGACCGAGUGAUGUUCAGGUCUGAAUGCCGGUAAUAAGAGCCCUUGGCAGCCAUGCGUACGGC: 335
- GCUAUGGUAGGAAGGAGCGCUGCCUUGUUUUUACGAGUGAUGUUCGGAAGCAGGGCGUUAAAGCAGGUAGGUCGCCUACUAUAGC [Arginine B K4 22]: 147
- UAAUAUCAACUUGUAGGAGUGAUGUUCCGCCGAGGACCGGUACGGCCGCCACUCGACAAAAUCUCAGUGUGGUACCUAGGAAUUU [theeternabot_exclusion_KL_Trp_A_24]: 352
